# Tested on: HEK-293T
# ASSAY: Multiplex assay against HEK293T
# Assay type: toxicity, cell-based
# MEASUREMENT SETUP: human, 48 h, 1 µM, compound concentration 1 uM, replicate 2
// reported Population Mitochondria Different-Phenotype (%) for each item listed
Number only, in %; omit the unit.

Examples with their reported Population Mitochondria Different-Phenotype (%) follow.
> print(dat)
                                   compound  readout.number
1  CC(Cc1ccc(O)c(O)c1)C(C)Cc1ccc(O)c(O)c1 (stereo not drawn) [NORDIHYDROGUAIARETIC ACID]               1
2  C[C@@H](Oc1cc(-n2cnc3ccc(CN4CCN(C)CC4)cc32)sc1C(N)=O)c1ccccc1C(F)(F)F [GSK-461364]              53
3  Cc1c(P(=S)(c2ccccc2)c2ccccc2)n2ccccc2[n+]1C/C=C/c1ccccc1.[Br-]              91

Reported Population Mitochondria Different-Phenotype (%), compound `Cl.NC[C@@H]1O[C@H](C23CC4CC(CC(C4)C2)C3)Cc2c1ccc(O)c2O` : ____
3

Reported Population Mitochondria Different-Phenotype (%), compound `CC(C)c1cc(Nc2nc(N3CCC[C@H](N)C3)ncc2C(N)=O)cc(C(C)C)n1` : ____
81

Reported Population Mitochondria Different-Phenotype (%), compound `C=CC(=O)Nc1cc(-n2c(=O)ccc3cnc4ccc(-c5ccc(NS(C)(=O)=O)cc5)cc4c32)ccc1C` : ____
4

Reported Population Mitochondria Different-Phenotype (%), compound `CCCc1cc(C)[nH]c(=O)c1CNC(=O)c1cc(-c2ccc(N3CCN(C(C)C)CC3)nc2)cc2c1cnn2C(C)C` : ____
77

Reported Population Mitochondria Different-Phenotype (%), compound `CC(/C=C1\SC(=S)N(CCCC(=O)Nc2ccc(C(=O)O)c(O)c2)C1=O)=C\c1ccccc1` : ____
3
